Target System: GSG2 (human)
Assay Notes: radiometric filter-binding kinase assay, Kinase HotSpot
Measurement Setup: compound 0.5 µM; ATP 10 µM
Reported Endpoint: residual activity (%)
Write the number in % without appending the unit.

C#Cc1cccc(Nc2ncnc3cc(OCCOC)c(OCCOC)cc23)c1; 80.9
O=c1cc(N2CCNCC2)oc2c(-c3ccccc3)cccc12; 94.3
COc1cc2ncnc(Nc3ccc(F)c(Cl)c3)c2cc1OCCCN1CCOCC1; 84
O=c1cc(-c2cccc3c2Sc2ccccc2S3)oc(N2CCOCC2)c1; 106

# residual activity (compound: `O=C1Cc2c([nH]c3ccc([N+](=O)[O-])cc23)-c2ccccc2N1` ) is 106

// sample CSc1nc(-c2ccc(F)cc2)c(-c2ccnc(NC(C)c3ccccc3)c2)[nH]1 (stereo not drawn) , its residual activity was 96.3

Consider `CCCNC(=O)Nc1ccc(Oc2ncnc3cc(OC)c(OC)cc23)cc1Cl` . Its measured residual activity is 99.1

Entry under test: `Nc1n[nH]c2nnc(-c3c(-c4ccccc4)nn4ccccc34)cc12` . Its residual activity was 97.1

Entry `Oc1ccc(-c2nc(-c3ccc(F)cc3)c(-c3ccncc3)[nH]2)cc1` ; residual activity = 86.9

Quick note, residual activity for `Cc1ccc(NC(=O)c2ccc(CN3CCN(C)CC3)cc2)cc1Nc1nc(-c2cccnc2)cs1` landed at 100

Notebook: `Clc1ccc(Nc2nnc(Cc3ccncc3)c3ccccc23)cc1` , residual activity read as 70

Measured residual activity, `Nc1nc(Nc2ccc(S(N)(=O)=O)cc2)nn1C(=S)Nc1c(F)cccc1F` : 85.3

`O=C1Nc2cc(Br)ccc2/C1=C1/Nc2ccccc2/C1=N\O` has a reported residual activity of 95.9

Short answer for `O=C(Nc1ccc(Cl)cc1)c1ccccc1NCc1ccncc1` : residual activity was 95.5

compound `CCN1/C(=C/C(C)=O)Sc2ccc(OC)cc21` , residual activity observed: 25

Quick note, residual activity for `Nc1nc(Nc2ccc(S(N)(=O)=O)cc2)nn1C(=O)c1c(F)cccc1F` landed at 107

The recorded residual activity for entry `COc1ccc(-c2cnc3c(-c4ccsc4)cnn3c2)cc1` equals 77.2

response.value for `NC(=O)c1ccc(N(C(N)=O)c2c(F)cccc2F)nc1-c1ccc(F)cc1F` (field: residual activity) = 81.3

Given item `CC(C)[C@H](CO)Nc1nc(Nc2cccc(Cl)c2)c2ncn(C(C)C)c2n1` , the value recorded as its residual activity is 93.6

residual activity in this record for `CC(C)n1cnc2c(Nc3cccc(Cl)c3)nc(NCCO)nc21` : 94.7

// `O=C1Nc2ccccc2/C1=C\c1c(Cl)[nH]c2ccccc12` : residual activity value = 91

Kindly note the recorded residual activity for `CC(C)(C)c1nc2c3ccc(F)cc3c3c(=O)[nH]ccc3c2[nH]1` , which is 67.2

// residual activity lookup, compound = `Cc1cc2ncc(-c3ccccc3)nc2cc1C` , result: 91.5

---

Target System: RPS6KA5 KD2 (human) (UniProt O75582)
Sequence (O75582 whole entry, looked up): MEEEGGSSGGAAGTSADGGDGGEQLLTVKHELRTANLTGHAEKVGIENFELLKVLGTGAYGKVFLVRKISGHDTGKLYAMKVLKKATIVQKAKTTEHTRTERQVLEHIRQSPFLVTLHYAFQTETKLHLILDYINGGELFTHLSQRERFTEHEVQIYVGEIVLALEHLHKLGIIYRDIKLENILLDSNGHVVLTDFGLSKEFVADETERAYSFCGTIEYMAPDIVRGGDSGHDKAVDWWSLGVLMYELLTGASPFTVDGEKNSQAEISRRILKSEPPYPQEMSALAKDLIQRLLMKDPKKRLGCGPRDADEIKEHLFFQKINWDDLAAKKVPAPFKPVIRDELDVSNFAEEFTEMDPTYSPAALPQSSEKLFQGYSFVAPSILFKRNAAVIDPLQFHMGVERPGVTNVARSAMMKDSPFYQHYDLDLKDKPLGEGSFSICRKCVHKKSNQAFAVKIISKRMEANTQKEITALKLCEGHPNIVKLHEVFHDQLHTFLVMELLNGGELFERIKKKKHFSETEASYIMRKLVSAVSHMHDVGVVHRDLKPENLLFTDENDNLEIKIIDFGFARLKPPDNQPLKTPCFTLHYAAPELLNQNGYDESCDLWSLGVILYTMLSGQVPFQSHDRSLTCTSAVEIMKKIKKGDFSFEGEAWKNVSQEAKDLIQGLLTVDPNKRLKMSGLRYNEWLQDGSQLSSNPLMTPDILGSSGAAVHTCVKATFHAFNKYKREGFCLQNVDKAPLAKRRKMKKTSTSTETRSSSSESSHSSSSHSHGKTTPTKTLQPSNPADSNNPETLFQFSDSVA
Assay Notes: radiometric filter-binding kinase assay, Kinase HotSpot
Measurement Setup: compound 0.5 µM; ATP 10 µM
Reported Endpoint: residual activity
Express the reported value numerically, then name its unit.

Sample records with residual activity:
CC(C)(C)c1nc2c3ccc(F)cc3c3c(=O)[nH]ccc3c2[nH]1; 58%
CC(C)n1cnc2c(Nc3cccc(Cl)c3)nc(NCCO)nc21; 87%
NC(=O)c1ccc(N(C(N)=O)c2c(F)cccc2F)nc1-c1ccc(F)cc1F; 92.8%
Cc1ccc(NC(=O)c2ccc(CN3CCN(C)CC3)cc2)cc1Nc1nc(-c2cccnc2)cs1; 103%
Cc1cc2ncc(-c3ccccc3)nc2cc1C; 96.4%
O=c1cc(-c2cccc3c2Sc2ccccc2S3)oc(N2CCOCC2)c1; 117%
Nc1nc(Nc2ccc(S(N)(=O)=O)cc2)nn1C(=S)Nc1c(F)cccc1F; 68.1%
Oc1ccc(-c2nc(-c3ccc(F)cc3)c(-c3ccncc3)[nH]2)cc1; 107%

So for `O=C1Nc2cc(Br)ccc2/C1=C1/Nc2ccccc2/C1=N\O` , the logged residual activity turned out to be 82.6%

Item: `Clc1ccc(Nc2nnc(Cc3ccncc3)c3ccccc23)cc1` | residual activity: 85.5%

In plain terms, `O=C1Cc2c([nH]c3ccc([N+](=O)[O-])cc23)-c2ccccc2N1` has a documented residual activity of 107%

---

Target System: NTRK2 (human) (UniProt Q16620)
Sequence (Q16620 whole entry, looked up): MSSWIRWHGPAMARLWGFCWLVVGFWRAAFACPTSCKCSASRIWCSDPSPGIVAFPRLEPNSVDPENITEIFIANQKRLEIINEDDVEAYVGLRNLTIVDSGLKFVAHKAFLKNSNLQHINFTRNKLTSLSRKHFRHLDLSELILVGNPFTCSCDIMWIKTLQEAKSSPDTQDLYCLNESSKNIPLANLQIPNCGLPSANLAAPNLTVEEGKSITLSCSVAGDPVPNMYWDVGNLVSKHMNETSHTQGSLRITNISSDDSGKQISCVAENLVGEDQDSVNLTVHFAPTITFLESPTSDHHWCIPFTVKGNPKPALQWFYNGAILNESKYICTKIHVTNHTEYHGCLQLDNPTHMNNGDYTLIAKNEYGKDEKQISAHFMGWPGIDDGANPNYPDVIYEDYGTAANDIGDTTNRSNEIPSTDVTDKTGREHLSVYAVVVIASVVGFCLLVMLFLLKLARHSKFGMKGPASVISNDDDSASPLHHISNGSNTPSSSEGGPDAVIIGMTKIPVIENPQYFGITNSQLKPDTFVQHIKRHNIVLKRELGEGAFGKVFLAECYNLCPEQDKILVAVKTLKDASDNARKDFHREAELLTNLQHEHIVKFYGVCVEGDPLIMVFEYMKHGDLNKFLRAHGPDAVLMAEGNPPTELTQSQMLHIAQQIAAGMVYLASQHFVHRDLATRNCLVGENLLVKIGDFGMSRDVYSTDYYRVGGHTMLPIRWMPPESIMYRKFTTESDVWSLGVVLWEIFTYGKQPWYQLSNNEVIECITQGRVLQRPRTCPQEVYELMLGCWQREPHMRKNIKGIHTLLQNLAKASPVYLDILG
Assay Notes: radiometric filter-binding kinase assay, Kinase HotSpot
Measurement Setup: compound 0.5 µM; ATP 10 µM
Reported Endpoint: residual activity (%)
Entry rule: numbers only, all in %.

# count of solved cases: 4
CC(C)(C)c1nc2c3ccc(F)cc3c3c(=O)[nH]ccc3c2[nH]1; 16.1
Oc1ccc(-c2nc(-c3ccc(F)cc3)c(-c3ccncc3)[nH]2)cc1; 102
Cc1ccc(NC(=O)c2ccc(CN3CCN(C)CC3)cc2)cc1Nc1nc(-c2cccnc2)cs1; 101
CCN1/C(=C/C(C)=O)Sc2ccc(OC)cc21; 104

In the following, a different compound is considered.
The recorded residual activity for entry `Nc1nc(Nc2ccc(S(N)(=O)=O)cc2)nn1C(=O)c1c(F)cccc1F` equals 42.8

---

Target System: CDK1 CCNB1 (human) (UniProt P06493+P14635)
Sequence (P06493 whole entry, looked up): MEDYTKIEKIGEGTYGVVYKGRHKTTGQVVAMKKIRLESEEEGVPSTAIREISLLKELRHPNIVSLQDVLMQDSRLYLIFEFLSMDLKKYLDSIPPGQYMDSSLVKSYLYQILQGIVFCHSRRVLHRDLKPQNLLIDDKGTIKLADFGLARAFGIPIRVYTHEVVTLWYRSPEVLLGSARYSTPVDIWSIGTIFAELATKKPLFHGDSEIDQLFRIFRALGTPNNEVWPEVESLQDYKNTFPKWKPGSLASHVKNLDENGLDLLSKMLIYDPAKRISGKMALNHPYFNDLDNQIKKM
Sequence (P14635 whole entry, looked up): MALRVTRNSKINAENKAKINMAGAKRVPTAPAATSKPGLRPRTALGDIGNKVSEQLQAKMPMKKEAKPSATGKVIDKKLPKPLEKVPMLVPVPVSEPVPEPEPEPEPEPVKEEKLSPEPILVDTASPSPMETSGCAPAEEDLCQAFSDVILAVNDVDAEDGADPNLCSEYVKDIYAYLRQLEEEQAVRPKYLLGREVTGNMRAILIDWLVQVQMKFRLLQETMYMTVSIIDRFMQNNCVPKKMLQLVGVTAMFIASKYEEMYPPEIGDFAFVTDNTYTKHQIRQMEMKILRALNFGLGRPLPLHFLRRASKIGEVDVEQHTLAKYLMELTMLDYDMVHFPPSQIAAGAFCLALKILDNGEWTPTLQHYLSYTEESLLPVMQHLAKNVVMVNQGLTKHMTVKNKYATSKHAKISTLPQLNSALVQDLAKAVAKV
Assay Notes: radiometric filter-binding kinase assay, Kinase HotSpot
Measurement Setup: compound 0.5 µM; ATP 10 µM
Reported Endpoint: residual activity (%)
Respond with the bare value in %.

As a guide, the following entries are already answered.
O=C1Nc2cc(Br)ccc2/C1=C1/Nc2ccccc2/C1=N\O; 50.5
Nc1n[nH]c2nnc(-c3c(-c4ccccc4)nn4ccccc34)cc12; 90.2
O=c1cc(-c2cccc3c2Sc2ccccc2S3)oc(N2CCOCC2)c1; 88.5

The compound `CCOc1nc(NC(=O)Cc2cc(OC)ccc2OC)cc(N)c1C#N` , when measured on CDK1 CCNB1 (human) (UniProt P06493+P14635), yielded residual activity of 108

Response field residual activity (CDK1 CCNB1 (human) (UniProt P06493+P14635)) for item `Cc1cc(Nc2cc(N3CCN(C)CC3)nc(Sc3ccc(NC(=O)C4CC4)cc3)n2)[nH]n1` : 102

The value of residual activity recorded for `O=C1Cc2c([nH]c3ccc([N+](=O)[O-])cc23)-c2ccccc2N1` when tested on CDK1 CCNB1 (human) (UniProt P06493+P14635) reads 23.2

CDK1 CCNB1 (human) (UniProt P06493+P14635) residual activity of `CCN1/C(=C/C(C)=O)Sc2ccc(OC)cc21` is 93.2

Lab entry: CDK1 CCNB1 (human) (UniProt P06493+P14635) assay, compound `NC(=O)c1ccc(-c2nc(-c3ccccn3)c(-c3ccc4c(c3)OCCO4)[nH]2)cc1` , residual activity = 83.9

---

residual activity values, listed per item
Target System: MAPK3 (human) (UniProt P27361)
Sequence (P27361 whole entry, looked up): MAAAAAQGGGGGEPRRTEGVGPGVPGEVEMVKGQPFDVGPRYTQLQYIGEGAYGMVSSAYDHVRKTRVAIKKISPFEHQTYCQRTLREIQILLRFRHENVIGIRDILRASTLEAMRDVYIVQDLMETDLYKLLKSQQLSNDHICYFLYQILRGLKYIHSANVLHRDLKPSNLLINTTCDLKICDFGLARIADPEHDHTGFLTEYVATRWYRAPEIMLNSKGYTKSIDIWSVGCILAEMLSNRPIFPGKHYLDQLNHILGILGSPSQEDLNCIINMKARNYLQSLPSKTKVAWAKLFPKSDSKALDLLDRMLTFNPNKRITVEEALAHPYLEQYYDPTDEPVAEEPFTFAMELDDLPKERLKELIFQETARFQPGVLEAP
Assay Notes: radiometric filter-binding kinase assay, Kinase HotSpot
Measurement Setup: compound 0.5 µM; ATP 10 µM
Reply numerically in %, unit not repeated.

Worked cases, residual activity given:
Cc1ccc(NC(=O)c2ccc(CN3CCN(C)CC3)cc2)cc1Nc1nc(-c2cccnc2)cs1; 103
COc1ccc(-c2cnc3c(-c4ccsc4)cnn3c2)cc1; 99.5
Cc1cc2ncc(-c3ccccc3)nc2cc1C; 106
O=C(Nc1ccc(Cl)cc1)c1ccccc1NCc1ccncc1; 102
O=C(NC(NC(=S)Nc1ccc(F)c([N+](=O)[O-])c1)C(Cl)(Cl)Cl)C(c1ccccc1)c1ccccc1 (stereo not given); 120
CCCNC(=O)Nc1ccc(Oc2ncnc3cc(OC)c(OC)cc23)cc1Cl; 105
O=C1Nc2ccccc2/C1=C\c1c(Cl)[nH]c2ccccc12; 109
Clc1ccc(Nc2nnc(Cc3ccncc3)c3ccccc23)cc1; 94.7

`Nc1n[nH]c2nnc(-c3c(-c4ccccc4)nn4ccccc34)cc12` yielded residual activity of 65.8

`Oc1ccc(-c2nc(-c3ccc(F)cc3)c(-c3ccncc3)[nH]2)cc1` has a reported residual activity of 101

---

Target System: STK4 (human) (UniProt Q13043)
Sequence (Q13043 whole entry, looked up): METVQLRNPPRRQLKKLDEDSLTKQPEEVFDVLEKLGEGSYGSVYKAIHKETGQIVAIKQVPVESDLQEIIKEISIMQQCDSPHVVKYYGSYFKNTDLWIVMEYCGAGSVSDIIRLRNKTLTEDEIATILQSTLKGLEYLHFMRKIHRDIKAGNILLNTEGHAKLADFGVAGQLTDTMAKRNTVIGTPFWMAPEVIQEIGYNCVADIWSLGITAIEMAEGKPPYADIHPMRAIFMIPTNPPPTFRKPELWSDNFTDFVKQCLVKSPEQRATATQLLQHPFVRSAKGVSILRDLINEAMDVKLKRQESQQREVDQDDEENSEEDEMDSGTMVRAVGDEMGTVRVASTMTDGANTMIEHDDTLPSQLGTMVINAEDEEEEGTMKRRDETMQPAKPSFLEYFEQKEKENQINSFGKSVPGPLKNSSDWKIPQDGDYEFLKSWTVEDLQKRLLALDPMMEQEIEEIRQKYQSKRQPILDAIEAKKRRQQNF
Assay Notes: radiometric filter-binding kinase assay, Kinase HotSpot
Measurement Setup: compound 0.5 µM; ATP 10 µM
Reported Endpoint: residual activity (%)
Write the value in % as a bare number.

O=C1Cc2c([nH]c3ccc([N+](=O)[O-])cc23)-c2ccccc2N1; 52.3
COc1cc2ncnc(Nc3ccc(F)c(Cl)c3)c2cc1OCCCN1CCOCC1; 101

Recorded result, `Cc1cc2ncc(-c3ccccc3)nc2cc1C` , residual activity: 98.6

Noted for `NC(=O)c1ccc(N(C(N)=O)c2c(F)cccc2F)nc1-c1ccc(F)cc1F` : its residual activity reads 101

The compound listed as `Nc1nc(Nc2ccc(S(N)(=O)=O)cc2)nn1C(=S)Nc1c(F)cccc1F` has a reported residual activity of 2.16
